test system: LU99A; experiment: relative viability (nuclei count vs DMSO), 5 days (fraction); higher = more cells survive; settings: first compound 1 µM
Overview of reported relative viability across a group of compounds:
Keep the answer to the number alone.

CCN(CC)CCCCNc1ncc2cc(-c3cc(OC)cc(OC)c3)c(NC(=O)NC(C)(C)C)nc2n1 + O=C(c1cc(Cc2n[nH]c(=O)c3ccccc23)ccc1F)N1CCN(C(=O)C2CC2)CC1 [Olaparib] (partner 8 µM)	0.245
CCN(CC)CCCCNc1ncc2cc(-c3cc(OC)cc(OC)c3)c(NC(=O)NC(C)(C)C)nc2n1 + NC(=O)Nc1cc(-c2cccc(F)c2)sc1C(=O)N[C@H]1CCCNC1 [AZD7762] (partner 0.2 µM)	0.289

Briefly, relative viability measured for CCN(CC)CCCCNc1ncc2cc(-c3cc(OC)cc(OC)c3)c(NC(=O)NC(C)(C)C)nc2n1 + C[C@]1(O)C[C@@H](c2nc(-c3ccc4ccc(-c5ccccc5)nc4c3)c3c(N)nccn32)C1 [Linsitinib] (partner 1 µM) : 0.517

----------
tested on: NCI-H1666; experiment: relative viability (nuclei count vs DMSO), 5 days (fraction); higher = more cells survive; conditions: first compound 2.53 µM
outcome_measure: relative viability
A bare number is all that is needed in reply.

Worked cases, relative viability given:
COc1nc(C)cnc1NS(=O)(=O)c1cccnc1-c1ccc(-c2nnco2)cc1 [Zibotentan] + O=C(CCCCCCC(=O)Nc1ccccc1)NO [Vorinostat] (partner 1 µM)	1.1
COc1nc(C)cnc1NS(=O)(=O)c1cccnc1-c1ccc(-c2nnco2)cc1 [Zibotentan] + CS(=O)(=O)CCNCc1ccc(-c2ccc3ncnc(Nc4ccc(OCc5cccc(F)c5)c(Cl)c4)c3c2)o1 [Lapatinib] (partner 2 µM)	0.688

We next turn to a different compound, shown below.
Memo: COc1nc(C)cnc1NS(=O)(=O)c1cccnc1-c1ccc(-c2nnco2)cc1 [Zibotentan] + O=C(c1cc(Cc2n[nH]c(=O)c3ccccc23)ccc1F)N1CCN(C(=O)C2CC2)CC1 [Olaparib] (partner 8 µM) , reported relative viability: 0.728

----------
Below: a set of entries, each annotated with reported relative viability.
tested on: PC-3 [JPC-3]; experiment: relative viability (nuclei count vs DMSO), 5 days (fraction); higher = more cells survive; details: first compound 0.8 µM
Keep the answer to the number alone.

O=c1cc(-c2cccc3c2Sc2ccccc2S3)oc(N2CCOCC2)c1 + N=C(N)NC(=N)NCCc1ccccc1 [Phenformin] (partner 250 µM)	0.514
O=c1cc(-c2cccc3c2Sc2ccccc2S3)oc(N2CCOCC2)c1 + CC1(C)CCC(c2ccc(Cl)cc2)=C(CN2CCN(c3ccc(C(=O)NS(=O)(=O)c4ccc(N[C@H](CCN5CCOCC5)CSc5ccccc5)c(S(=O)(=O)C(F)(F)F)c4)cc3)CC2)C1 [Navitoclax] (partner 0.5 µM)	0.897
O=c1cc(-c2cccc3c2Sc2ccccc2S3)oc(N2CCOCC2)c1 + C[C@@H](Oc1cc(-c2cnn(C3CCNCC3)c2)cnc1N)c1c(Cl)ccc(F)c1Cl [Crizotinib] (partner 1 µM)	1.03
O=c1cc(-c2cccc3c2Sc2ccccc2S3)oc(N2CCOCC2)c1 + CS(=O)(=O)CCNCc1ccc(-c2ccc3ncnc(Nc4ccc(OCc5cccc(F)c5)c(Cl)c4)c3c2)o1 [Lapatinib] (partner 2 µM)	0.435

Notebook: O=c1cc(-c2cccc3c2Sc2ccccc2S3)oc(N2CCOCC2)c1 + O=C(CCCCCCC(=O)Nc1ccccc1)NO [Vorinostat] (partner 1 µM) , relative viability read as 0.769
